Experiment: A549 cell viability effects, profiling panel, calcein-AM fluorescence, 48 h, basal (AID 1162); further: test concentration not given here
Settings: higher = more signal
Response field class: enum, chosen by comparing z-score against low bin = under -0.3, mid bin = from -0.3 up to 0.5, high bin = 0.5 and over

Dear colleague, I would appreciate it if you could identify the bin for `C=CCNC(=O)[C@@H]1[C@H]2C(=O)O[C@H](c3ccccc3)[C@H](c3ccccc3)N2[C@H](c2ccc(O)cc2)[C@@]12C(=O)N(C(=O)OCCOC)c1ccc(C#Cc3ccc(OC)cc3)cc12` and reply at your convenience. low bin

Another compound to look at: C#CCN1C(C(=O)OCC)OC[C@H]1c1ccccc1 (stereo partly specified) mid bin

Another compound to look at: `C=CCN1C(=O)[C@@]2(O[C@@H](CCO)[C@H]([Si](C)(C)c3ccc(OC)cc3)[C@H]2C)c2cc(N(C=O)c3ccccc3)ccc21` low bin

Another compound to look at: `COCCCNC(=O)[C@@]1(Cc2ccccc2CN=[N+]=[N-])COC(c2ccc(OCCCO)cc2)=N1` mid bin

Another compound to look at: CCCCCN1CC=CC23O[C@@H]4/C=C\CCC(C)OC(=O)C4[C@H]2C(=O)N(CCO)[C@@H]3C1=O (stereo partly specified) mid bin

Another compound to look at: CC(=O)OC(C/C=C\B1OC(C)(C)C(C)(C)O1)c1ccccc1 (stereo unspecified) high bin

Another compound to look at: `O=C(O)[C@H]1C[C@H]2C(=O)N[C@@H](Cc3ccccc3)C(=O)N2[C@H]1c1ccc(O)cc1` low bin

Another compound to look at: `O=C1c2ccccc2[C@@]2(Cc3ccccc3N(CC(F)(F)F)C2=O)[C@H](c2ccc(CO)cc2)N1Cc1ccccc1C(F)(F)F` high bin

Another compound to look at: CC(C)C(CO)N1C(=O)[C@@H]2[C@H]3C(=O)OCC=C[C@H]3OC23C=CCN(Cc2ccccc2)C(=O)[C@@H]13 (stereo partly specified) low bin

Another compound to look at: `COCCCNC(=O)[C@@]1(Cc2ccccc2)N=C(c2ccc(OCCCO)cc2)O[C@H]1c1ccccc1N=[N+]=[N-]` low bin

Another compound to look at: `COc1c(C)cc(-c2cc3c(c(CCc4ccccc4)n2)[Si](C(C)C)(C(C)C)OC3)cc1C` mid bin

Another compound to look at: `NCCCCCNC(=O)[C@H]1C[C@H]2C(=O)NCC(=O)N2[C@H]1c1ccc(O)cc1` mid bin

Another compound to look at: `O=C1c2ccccc2[C@](Cc2ccccc2I)(C(=O)O)[C@H](c2ccc(CO)cc2)N1Cc1ccccc1Cl` high bin

Another compound to look at: `CC(C)(C)OC(=O)CC[C@@]12N=C(c3ccc(OCCCO)cc3)O[C@@H]1c1ccccc1CN(Cc1ccccc1)C2=O` low bin

Another compound to look at: `C[N+](C)(C)CCCCNC(=O)[C@@H]1C[C@@H]2C(=O)NCC(=O)N2[C@@H]1c1cccc(OCCO)c1` high bin

Another compound to look at: `O=C1O[C@H](c2ccccc2)[C@H](c2ccccc2)N2[C@H]1[C@@H](C(=O)NC[C@H](O)c1ccccc1)[C@]1(C(=O)Nc3ccc(C#CC4(O)CCCCCC4)cc31)[C@H]2c1ccc(O)cc1` high bin
